As shown below, each of these compounds has a reported pIC50 value.
- TEST NAME: Inhibition of Wnt/beta-catenin signaling in BCL9 knockdown mouse CT26 cells assessed as reduction in Axin2 expression incubated for 24 hrs by qPCR analysis
- SETTINGS: CT26, 24 h
Value format note: pIC50 is -log10 of concentration (mol/L); just state the number.

>>> print(df.to_string())
                                     smiles  endpoint_name  value_observed
0  CN1CCN(CCCOc2cc(-c3oc4cc(O)cc(O)c4c(=O)c3O)ccc2O)CC1          pIC50            4.55

Switching to the query record.
Exercise: // query pIC50 value for entry O=c1c(O)c(-c2ccc(O)c(O)c2)oc2cc(O)cc(O)c12
Key: 4.63

----------
- STUDY TARGET: beta-catenin-B-cell lymphoma 9 protein complex (Homo sapiens)
- Sequence (P35222 whole entry): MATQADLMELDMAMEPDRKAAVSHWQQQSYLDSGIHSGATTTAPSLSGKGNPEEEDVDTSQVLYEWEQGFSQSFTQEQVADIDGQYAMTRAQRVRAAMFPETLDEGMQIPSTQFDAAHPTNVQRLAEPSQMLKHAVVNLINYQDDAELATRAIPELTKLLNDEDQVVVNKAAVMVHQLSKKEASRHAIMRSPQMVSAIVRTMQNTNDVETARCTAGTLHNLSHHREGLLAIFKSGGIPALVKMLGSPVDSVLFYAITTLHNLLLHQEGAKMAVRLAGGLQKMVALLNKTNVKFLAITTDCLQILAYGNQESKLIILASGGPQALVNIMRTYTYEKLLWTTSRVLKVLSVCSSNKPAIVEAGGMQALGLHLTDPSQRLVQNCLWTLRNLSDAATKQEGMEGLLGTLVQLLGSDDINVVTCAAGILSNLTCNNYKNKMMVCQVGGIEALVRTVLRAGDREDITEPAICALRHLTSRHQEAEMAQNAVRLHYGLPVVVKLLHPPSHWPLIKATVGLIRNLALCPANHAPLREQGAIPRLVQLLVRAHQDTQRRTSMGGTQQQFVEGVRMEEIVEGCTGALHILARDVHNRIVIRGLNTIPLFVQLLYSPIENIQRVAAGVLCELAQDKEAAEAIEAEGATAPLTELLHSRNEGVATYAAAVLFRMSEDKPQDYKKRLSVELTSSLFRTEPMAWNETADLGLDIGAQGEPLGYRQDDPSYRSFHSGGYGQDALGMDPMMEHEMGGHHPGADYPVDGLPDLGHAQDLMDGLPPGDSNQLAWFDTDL
- Sequence (O00512 whole entry, further chain): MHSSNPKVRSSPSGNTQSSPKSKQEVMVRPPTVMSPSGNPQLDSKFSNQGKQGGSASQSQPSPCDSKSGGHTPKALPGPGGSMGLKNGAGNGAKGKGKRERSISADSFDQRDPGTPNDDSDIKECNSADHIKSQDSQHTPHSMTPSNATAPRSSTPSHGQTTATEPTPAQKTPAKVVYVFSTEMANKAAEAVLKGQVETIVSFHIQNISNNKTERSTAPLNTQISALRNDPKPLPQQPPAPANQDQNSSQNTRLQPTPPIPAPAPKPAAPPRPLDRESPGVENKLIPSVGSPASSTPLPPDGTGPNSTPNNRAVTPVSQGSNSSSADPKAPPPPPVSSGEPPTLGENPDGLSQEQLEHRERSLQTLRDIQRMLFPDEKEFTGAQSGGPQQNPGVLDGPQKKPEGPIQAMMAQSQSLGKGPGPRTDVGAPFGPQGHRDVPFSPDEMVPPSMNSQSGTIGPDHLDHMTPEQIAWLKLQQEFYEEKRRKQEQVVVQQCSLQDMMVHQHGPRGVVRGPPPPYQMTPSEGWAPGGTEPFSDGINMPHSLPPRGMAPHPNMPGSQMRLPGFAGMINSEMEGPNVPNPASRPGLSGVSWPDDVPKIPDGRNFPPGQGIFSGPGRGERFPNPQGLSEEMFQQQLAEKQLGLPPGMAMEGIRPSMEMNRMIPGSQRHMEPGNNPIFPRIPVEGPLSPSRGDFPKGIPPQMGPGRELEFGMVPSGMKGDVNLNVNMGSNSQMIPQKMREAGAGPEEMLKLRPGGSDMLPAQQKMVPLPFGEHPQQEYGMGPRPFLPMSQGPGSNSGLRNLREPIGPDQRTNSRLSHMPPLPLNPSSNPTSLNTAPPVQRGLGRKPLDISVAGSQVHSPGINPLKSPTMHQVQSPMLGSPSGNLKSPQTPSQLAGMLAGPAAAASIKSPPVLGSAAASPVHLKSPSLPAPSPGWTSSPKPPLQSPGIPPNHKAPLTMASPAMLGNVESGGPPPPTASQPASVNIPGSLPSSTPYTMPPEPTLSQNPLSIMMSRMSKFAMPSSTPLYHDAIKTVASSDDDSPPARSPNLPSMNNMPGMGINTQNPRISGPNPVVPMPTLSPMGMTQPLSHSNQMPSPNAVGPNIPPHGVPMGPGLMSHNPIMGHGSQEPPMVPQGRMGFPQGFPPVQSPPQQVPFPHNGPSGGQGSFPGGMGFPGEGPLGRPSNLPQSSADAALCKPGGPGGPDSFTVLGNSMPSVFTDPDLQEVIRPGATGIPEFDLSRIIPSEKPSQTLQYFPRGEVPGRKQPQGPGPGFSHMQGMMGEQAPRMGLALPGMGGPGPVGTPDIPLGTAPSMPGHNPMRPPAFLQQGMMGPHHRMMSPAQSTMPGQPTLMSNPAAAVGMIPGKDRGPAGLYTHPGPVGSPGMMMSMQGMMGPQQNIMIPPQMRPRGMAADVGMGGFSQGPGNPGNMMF
- TEST NAME: Inhibition of beta-catenin (unknown origin) to BCL9-FAM (unknown origin) protein-protein interaction preincubated for 2 hrs followed by BCL9 addition and measured after 2 hrs by fluorescence polarization assay
- Assay type: protein-complex assay
// pIC50 lookup, one value per entry
Just so you know, pIC50 here is -log10 of the concentration in molar units; reply with that number alone.

                                     smiles                              study_target  value_observed
0  O=c1c(O)c(-c2ccc(O)c(OCCN3CCCCCC3)c2)oc2cc(O)cc(O)c12  beta-catenin-B-cell lymphoma 9 protein complex (Homo sapiens)            4.43
1  O=c1c(O)c(-c2ccc(O)c(O)c2)oc2c(-c3ccc(O)cc3)c(O)cc(O)c12  beta-catenin-B-cell lymphoma 9 protein complex (Homo sapiens)            5.35
2  CCN(CC)CCCOc1cc(-c2oc3cc(O)cc(O)c3c(=O)c2O)ccc1O  beta-catenin-B-cell lymphoma 9 protein complex (Homo sapiens)            4.93
3  O=c1c(O)c(-c2ccc(O)c(O)c2)oc2cc(OCCCN3CCOCC3)cc(O)c12  beta-catenin-B-cell lymphoma 9 protein complex (Homo sapiens)            4.91
4  O=c1c(O)c(-c2ccc(O)c(O)c2)oc2c(-c3ccccc3)c(O)cc(O)c12  beta-catenin-B-cell lymphoma 9 protein complex (Homo sapiens)            4.73

Exercise: # input molecule: COc1cc(OCCCN2CCOCC2)c2c(=O)c(O)c(-c3ccc(O)c(O)c3)oc2c1 ; wanted: its pIC50
Key: 5.22

----------
Here, each record is paired with measured IC50 data.
- TEST NAME: Inhibition of Wnt/beta-catenin signaling in human HCT-116 cells assessed as reduction in Axin2 expression incubated for 24 hrs by qPCR analysis
- SETTINGS: HCT-116, 24 h
Record the value in µM, omitting the unit from your answer.

>>> print(df.to_string())
                                     smiles  endpoint_name  unit_text  value_observed
0  CN1CCN(CCCOc2cc(-c3oc4cc(O)cc(O)c4c(=O)c3O)ccc2O)CC1           IC50         µM            9.71

With those in mind, consider the next molecule.
Exercise: State the recorded IC50 for this entry: O=c1c(O)c(-c2ccc(O)c(O)c2)oc2cc(O)cc(O)c12
Key: 3.57
